- tested.system: SMARCA2 (Homo sapiens, UniProt P51531)
- Construct: endogenous in cells
- Sequence (P51531 whole entry): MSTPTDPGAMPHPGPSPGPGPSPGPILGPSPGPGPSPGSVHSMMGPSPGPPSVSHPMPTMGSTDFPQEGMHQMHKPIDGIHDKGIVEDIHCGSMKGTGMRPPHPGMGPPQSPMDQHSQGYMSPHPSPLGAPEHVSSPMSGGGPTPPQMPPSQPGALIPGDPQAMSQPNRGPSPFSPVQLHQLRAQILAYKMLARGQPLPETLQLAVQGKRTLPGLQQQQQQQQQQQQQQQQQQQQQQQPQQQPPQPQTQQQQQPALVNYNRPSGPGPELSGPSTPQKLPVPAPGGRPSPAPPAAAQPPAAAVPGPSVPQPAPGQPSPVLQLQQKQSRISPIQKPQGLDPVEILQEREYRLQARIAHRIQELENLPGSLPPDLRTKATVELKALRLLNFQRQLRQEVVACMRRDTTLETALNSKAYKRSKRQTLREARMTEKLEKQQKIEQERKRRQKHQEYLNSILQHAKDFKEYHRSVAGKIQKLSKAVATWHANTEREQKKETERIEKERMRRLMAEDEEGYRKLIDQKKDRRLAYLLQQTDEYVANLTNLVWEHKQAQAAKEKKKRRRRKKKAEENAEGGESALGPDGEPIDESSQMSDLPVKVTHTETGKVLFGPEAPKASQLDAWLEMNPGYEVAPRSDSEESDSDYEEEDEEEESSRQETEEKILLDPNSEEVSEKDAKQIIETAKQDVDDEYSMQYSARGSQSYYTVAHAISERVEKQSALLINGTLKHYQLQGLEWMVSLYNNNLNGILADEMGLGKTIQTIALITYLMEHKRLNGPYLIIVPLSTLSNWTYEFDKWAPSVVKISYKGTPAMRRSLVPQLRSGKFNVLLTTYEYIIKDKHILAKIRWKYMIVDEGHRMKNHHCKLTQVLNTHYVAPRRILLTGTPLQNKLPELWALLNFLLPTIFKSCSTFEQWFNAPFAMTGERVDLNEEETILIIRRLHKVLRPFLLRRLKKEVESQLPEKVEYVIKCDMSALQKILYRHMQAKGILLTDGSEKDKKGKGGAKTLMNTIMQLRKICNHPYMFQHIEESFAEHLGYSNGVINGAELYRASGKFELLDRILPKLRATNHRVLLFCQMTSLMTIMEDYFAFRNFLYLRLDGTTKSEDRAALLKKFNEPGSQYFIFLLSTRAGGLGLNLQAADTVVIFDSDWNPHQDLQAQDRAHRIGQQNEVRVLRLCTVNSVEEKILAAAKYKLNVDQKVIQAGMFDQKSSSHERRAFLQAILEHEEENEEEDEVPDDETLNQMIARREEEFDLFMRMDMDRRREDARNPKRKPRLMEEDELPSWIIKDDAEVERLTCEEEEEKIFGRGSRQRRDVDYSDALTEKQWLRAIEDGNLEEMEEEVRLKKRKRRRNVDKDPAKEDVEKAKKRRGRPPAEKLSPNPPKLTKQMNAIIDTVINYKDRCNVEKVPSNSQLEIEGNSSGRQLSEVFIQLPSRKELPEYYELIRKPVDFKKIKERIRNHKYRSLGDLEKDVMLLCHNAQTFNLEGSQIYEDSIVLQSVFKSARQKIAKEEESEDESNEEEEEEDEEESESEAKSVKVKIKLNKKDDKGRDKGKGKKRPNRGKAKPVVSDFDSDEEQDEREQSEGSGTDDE
- measurement.description: SMARCA2 HiBiT degradation assay (cellular)
- Assay type: cell-based
- condition.parameters: SMARCA2 HiBiT cells, luminescence readout, 11-point titration from 10 μM, 6 hours or 16 hours; read-out: HiBit A549 SMARCA2 IP
Just so you know, the groups by DC50 go like this: LOW = under 300 nM, MEDIUM = from 300 nM up to 1000 nM, HIGH = 1000 nM and over

-- ask Lab note: sort "Cc1ncsc1-c1ccc([C@H](C)NC(=O)[C@@H]2C[C@@H](O)CN2C(=O)[C@@H](NC(=O)CCCCCCCCCCC(=O)N2CCOC3(CCN(c4cc(-c5ccccc5O)nnc4N)CC3)C2)C(C)(C)C)cc1" into the matching DC50 band.
-- reply LOW

Data credit: patent US20230002367A1
